Data provenance is ChEMBL document CHEMBL1144343.

Each record here notes measured Ki.
- measured.target: Angiotensin II receptor (AT-1) type-1 (Rattus norvegicus, UniProt P29089+P25095)
- test.method.notes: Displacement of [125I]-Ang II from angiotensin II receptor type 1 in rat liver membranes
- Type: cell membranes, Membrane

Please review the entries below; each comes with its answer.
CC(C)[C@H](NC(=O)[C@H](CCCN=C(N)N)NC(=O)[C@@H](N)CC(=O)O)C(=O)Nc1ccc2c(c1)CN(CC(=O)N[C@@H](Cc1c[nH]cn1)C(=O)N1CCC[C@H]1C(=O)N[C@@H](Cc1ccccc1)C(=O)O)C(=O)[C@H](Cc1ccc(O)cc1)N2 | > 10 µM
CC[C@@H](C)[C@@H](C(=O)N[C@@H](Cc1c[nH]cn1)C(=O)N1CCC[C@H]1C(=O)N[C@@H](Cc1ccccc1)C(=O)O)N1Cc2cccc(NC(=O)[C@H](CCCN=C(N)N)NC(=O)[C@@H](N)CC(=O)O)c2N[C@@H](Cc2ccc(O)cc2)C1=O | > 10 µM

Field: next molecule
Q. Query: Ki; subject: `CC(C)[C@H](NC(=O)[C@H](C)NC(=O)[C@@H](N)CC(=O)O)C(=O)Nc1cccc2c1N[C@@H](Cc1ccc(O)cc1)C(=O)N(CC(=O)N[C@@H](Cc1c[nH]cn1)C(=O)N1CCC[C@H]1C(=O)N[C@@H](Cc1ccccc1)C(=O)O)C2`
A. > 10 µM
